# SYSTEM: UniProtKB P01116
# Sequence (P01116 whole entry): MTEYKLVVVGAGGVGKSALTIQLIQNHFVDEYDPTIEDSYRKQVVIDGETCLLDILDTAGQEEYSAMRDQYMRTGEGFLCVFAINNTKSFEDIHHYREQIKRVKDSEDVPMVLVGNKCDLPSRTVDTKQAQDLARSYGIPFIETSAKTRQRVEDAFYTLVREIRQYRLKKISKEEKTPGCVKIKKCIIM
# PROTOCOL_SUMMARY: Binding to KRAS by surface plasmon resonance (SPR), Single Cycle Kinetics
# EXPERIMENTAL_CONTEXT: SPR, Single Cycle Kinetics, 1:1 binding model; GDP-bound KRAS wild-type protein; read-out: KRAS KD
QUANTITY_KIND: Kd (pM)

MOLECULE	SYSTEM	QUANTITY_KIND	RESULT_VALUE
CCO[C@@H]1C[C@H]2C(=O)NC3(CCC3)C(=O)N(C)[C@@H](C3CCCC3)C(=O)N(C)[C@H](C(=O)N(C)CCOC)CC(=O)N(C)[C@@H](CC(F)F)C(=O)N[C@@H]([C@@H](C)CC)C(=O)N(C)CC(=O)N(C)[C@H]3C/C=C\CCN(C3=O)[C@@H](Cc3ccc(C(F)(F)F)cc3)C(=O)N(C)CC(=O)N[C@@H](CCc3cc(F)c(C(F)(F)F)c(F)c3)C(=O)N2C1 [PP1320]	UniProtKB P01116	Kd	57
CCO[C@@H]1C[C@H]2C(=O)NC3(CCC3)C(=O)N(C)[C@@H](C3CCCC3)C(=O)N(C)[C@H](C(=O)N(C)C)CC(=O)N(C)[C@@H](CC3CCC3)C(=O)N[C@@H]([C@@H](C)CC)C(=O)N(C)CC(=O)N(C)[C@H]3C/C=C\CCN(C3=O)[C@@H](CC3CCC(F)(F)CC3)C(=O)N(C)CC(=O)N[C@@H](CCc3cc(F)c(C(F)(F)F)c(F)c3)C(=O)N2C1 [PP1455]	UniProtKB P01116	Kd	110
